Test system: K562
Assay: NCI tumour cell line growth inhibition, 48 h
Activity calls are given as the source filed them. Rule as the data show it: active = GI50 up to about 1.1 µM and inactive = higher.
The reply should name one outcome from Yes (active), No (inactive)

Reference set (4 entries):
compound: Cc1cc(-c2c(F)cc3c4nn([C@H]5CC[C@@H](N(C)C)CC5)c(=O)c-4cn(C4CC4)c3c2F)cc(C)n1
category_label: Yes

compound: O=C1C=C(NCCc2ccccc2)c2ccccc2C1=O
category_label: No

compound: CC[N+](C)(CC)CCNC(=O)C(O)(c1ccccc1)c1ccccc1
category_label: No

compound: O=[N+]([O-])c1nccn1COCCBr
category_label: No

For Clc1cc(N/N=C(/c2ccccc2)c2ncccn2)ncn1 , what call appears in the results of this test?
No

For CCc1cc(Cc2ccc(C)c(NC(=O)C(=O)C3C(=O)NC(=O)NC3=O)c2CC)cc(C)c1NC(=O)C(=O)C1C(=O)NC(=O)NC1=O , what call appears in the results of this test?
No

For CC(C)COC(=O)N1N=NC2C3OC(CC3=O)C21 (stereo not given) , what call appears in the results of this test?
No

For COc1cc(Br)c(CC2(C#N)c3ccccc3C3C(N2C(=O)c2ccccc2)C3(Cl)Cl)cc1OC (stereo not given) , what call appears in the results of this test?
No

For Cn1c(=O)c2nc(N3CCOCC3)cnc2n(C)c1=O , what call appears in the results of this test?
No

For CCOC(=O)/C(=C\c1ccc(C#N)cc1)C(C)=O , what call appears in the results of this test?
No

###

So I've got a bunch of molecules here, and I need their GI50 values.
Tested on: UO-31
Test: NCI tumour cell line growth inhibition, 48 h
Active and inactive are the calls of the source. Cut-off read from the data, not from the text of the source: active = GI50 up to about 1.1 µM and inactive = higher.

Sample records with GI50:
molecule: CC(=O)NNc1nc(C)c(C(=O)NNC(=O)C(=O)Nc2cccc(C(C)=O)c2)s1
assayed_target: UO-31
GI50: 17.1 µM (inactive)
--
molecule: COc1ccc(C(O)c2ccc3c(c2)OCO3)cc1 (stereo unspecified)
assayed_target: UO-31
GI50: 74.1 µM (inactive)
--
molecule: O=C(Nc1nnn[nH]1)c1nc(O)cc(-c2ccccc2)n1
assayed_target: UO-31
GI50: > 100 µM (inactive)
--
molecule: COc1cc(/C=C2\[C@H]3c4c(c(OC)c(C)c(OC)c4OC)C[C@@H](C(=O)N2Cc2ccccc2)N3C(=O)OCC(C)C)c(OC)c(C)c1OC
assayed_target: UO-31
GI50: > 100 µM (inactive)
--
molecule: Cc1c(N=C(S)Nc2ccc(Cl)cc2)c(=O)n(-c2ccccc2)n1C
assayed_target: UO-31
GI50: > 100 µM (inactive)

State recorded GI50 for all listed molecules.
1. COC(=O)C1=COC2OC3C(C(C)O)C(=O)OC34C=CC1C24 (stereo unspecified)
2. CCCCCCCCCCCCCC(=O)OCC1OC(=O)CC1O (stereo unspecified)
3. Cn1ccnc1C(O)(c1nccn1C)c1nccn1C
4. CCOC(=O)c1c[nH]cc1-c1cn(S(=O)(=O)c2ccccc2)cc1C
5. CSC(=N\c1ccccc1)/N=C(\SCc1ccccc1)N(C)C
6. COc1cccc2c1C(=O)c1c(O)c3c(c(O)c1C2=O)C[C@@](O)(C(C)O)C[C@@H]3OC1CC(N)C(O)C(C)O1 (stereo partly specified)

["74.6 µM (inactive)", "20.2 µM (inactive)", "> 100 µM (inactive)", "27.5 µM (inactive)", "1.46 µM (inactive)", "38.5 µM (inactive)"]

State recorded GI50 for all listed molecules.
1. NC1CC(N)c2c(Br)sc(Br)c21 (stereo unspecified)
2. CC1=C(c2cc(C(=O)Nc3cc(C)ccc3C)nc(N)n2)Sc2ccccc2N1
3. C[n+]1c(Cl)cn2c3nc4ccccc4nc3c([O-])c(C#N)c21
4. CC(C(=O)c1ccccc1)C1(O)C(=O)Nc2ccccc21 (stereo unspecified)
5. C[S+]([O-])c1ncc2c(n1)-c1ccccc1OC2 (stereo unspecified)

41.4 µM (inactive)
> 100 µM (inactive)
> 100 µM (inactive)
> 100 µM (inactive)
22.3 µM (inactive)
